# Test: NCI Yeast Anticancer Drug Screen. Data for the mlh1 rad18 strain (AID 175)
# Experimental Setup: S. cerevisiae mlh1 rad18 strain growth inhibition; at 50.0 µM; active compounds read high
About 79,000 compounds went through this panel and 15% of them were active in at least one assay; those are over-represented in the sample as a whole.
Everything with growth inhibition lower than 60% is NOT MET; everything else, including exactly 60%, is MET.

1) O=[N+]([O-])c1cccc2nc3ccccc3c(NCCN(CCO)CCO)c12 :: NOT MET
2) CN(C)/C=C1\CCc2ccc([N+](=O)[O-])cc2C1=O :: NOT MET
3) Oc1cccc2c1-c1ccccc1C2 :: MET
4) CCCCCCC(C(=O)OCC)N1C(=O)c2ccccc2S1(=O)=O (centres undefined) :: MET
5) C/C(=N\O)c1cc(Br)cc([N+](=O)[O-])c1O :: NOT MET
6) O=C(CC1=Nc2nnc(CCCCCCCc3nnc4n3C(=O)C(CC(=O)c3ccc5ccccc5c3)=N4)n2C1=O)c1ccc2ccccc2c1 :: NOT MET
7) O=C(CC(=O)CC(O)(c1ccccc1)c1ccccc1)CC(=O)c1ccccc1 :: MET
8) O=C(NCCCCCCNC(=O)n1cc(F)c(=O)[nH]c1=O)NCCCOCCOCCOCCOCCOCCOCCOCCOCCOCCOCCOCCOCCOCCOCCOCCOCCOCCOCCOCCOCCOCCCNC(=O)C(O)C(O)C(OC1OC(CO)C(O)C(O)C1O)C(O)CO (centres undefined) :: NOT MET

---

# Test: NCI Yeast Anticancer Drug Screen. Data for the mec2-1 strain (AID 157)
# Experimental Setup: S. cerevisiae mec2-1 strain, at 50.0 µM (retest, dose inferred, filed as 5.0), active compounds read high
About 79,000 compounds went through this panel and 15% of them were active in at least one assay; those are over-represented in the sample as a whole.
Property Name: growth inhibition (%)

1. Cc1cc([N+](=O)[O-])c(C)c2c1[nH]c1ccc(O)cc12 :: 94
2. C=CCN(CC=C)C(CC(=O)C(C)(C)C)=NCC :: 6
3. Clc1ccc(CNCCCNCc2ccc(Cl)cc2)cc1 :: 31
4. Nc1cc2c(cc1[N+](=O)[O-])[nH]c1c(-c3ccccc3)nccc12 :: 99
5. C=C1C(=O)N2c3ccccc3C(C)(C)C2(S)C(=O)N1C (stereo not given) :: 86
6. Cc1cc(NCCCCCCCNc2cc(C)nc3cc([N+](=O)[O-])ccc23)c2ccc([N+](=O)[O-])cc2n1 :: 83
7. CN(C)c1ccc(/C=C/c2ccc3ccccc3[n+]2C)cc1 :: 98
8. COc1ccccc1NC(=O)C(/C=N/C(=S)NCCNc1ccc(OC)c(OC)c1)=C(\C)O :: -10
9. CCc1[nH]c(=O)nc(N)c1-c1ccc(N2CCCCC2)c([N+](=O)[O-])c1 :: 1
10. CCOC(CN=c1nc(N(C)C)ss1)OCC :: -12
11. CCOC(=O)C(Cc1c[nH]c2cc([N+](=O)[O-])ccc12)NS(=O)(=O)c1ccc2ccccc2c1 (stereo not given) :: 98
12. CCCCCCCCCCCCCCCCCC(=O)OC(Cc1ccccc1)C(=O)O (stereo not given) :: 2
13. O=c1c(Cl)c(Cl)cnn1-c1ccccc1 :: 22
14. CC1(c2ccccc2)c2ccccc2N(c2ccccc2)C(=O)C1O (stereo not given) :: 100
15. C=C(C)C(=O)Oc1ccc(NC(=O)c2ccccc2)ccc1=O :: 96
16. c1ccc(C2=NC(c3ccccc3)=NS(S3=NC(c4ccccc4)=NC(c4ccccc4)=N3)=N2)cc1 (stereo not given) :: 98
17. C=CCC(O)c1ccc(C(C)C)cc1 (stereo not given) :: -3
18. O=C(N/C=C/C=C/Sc1ccccc1)OCc1ccccc1 :: 98
19. Cc1nc(N=C(N)N)nc2ccc3ccccc3c12 :: 69
20. CC(=O)Nc1nc(N)c2ncn(C3OC(C(O)CO)C(O)C3O)c2n1 (stereo not given) :: 1
21. CC(C)=CCC(O)C1=CC(=O)c2c(O)ccc(O)c2C1=O (stereo not given) :: 66
22. CC1=NC(=Cc2ccc([N+](=O)[O-])cc2)C(=O)N1n1c(-c2ccccc2)nc2ccccc2c1=O :: 0
23. C[C@@H](O)[C@H]1CC[C@H]2[C@@H]3CCC4=C/C(=N/O)CC[C@]4(C)[C@H]3CC[C@]12C :: 20
24. CN(C)CCCN=c1c2ccccc2n(O)c2cccc([N+](=O)[O-])c12 :: -4
25. [N-]=[N+]=CC(=O)OCC1NC(=O)C(COC(=O)C=[N+]=[N-])NC1=O (stereo not given) :: 6
26. c1cc2c3c(c1)c1cc4c(cc1c[n+]3CC2)OCO4 :: 36
27. CCOC(=O)/C(C#N)=C\c1ccc([N+](=O)[O-])o1 :: 99
28. Clc1ccc(/C=C/c2ccccn2)c(Cl)c1 :: 12
29. O=C(/C=C/c1cccnc1)c1ccccc1 :: 67
30. O=C1Nc2ccccc2C1(O)C/C(=N/O)c1ccc2ccccc2c1 (stereo not given) :: 40
31. c1ccc(-c2nc3ccccc3[nH]2)cc1 :: 19
32. c1ccc(N=c2cnc3c(ccc4ccccc43)o2)cc1 :: 96
33. C=CCOC(=O)c1ccc(C(=O)OCC=C)cc1 :: -32
34. Fc1ccccc1-c1ncc(-c2ccccc2)o1 :: 94
35. CCCCCCCCCCNC1CC(OC2CC(O)(C(O)CO)Cc3c(O)c4c(c(O)c32)C(=O)c2c(OC)cccc2C4=O)OC(C)C1O (stereo not given) :: 98
36. Nc1ncnc2c1ncn2C1SC(CO)C(O)C1O (stereo not given) :: 5
37. CC(=O)c1ccc2ccc3ccc(O)cc3c2c1 :: 97
38. Cc1ccc(S(=O)(=O)Nc2cc(S(=O)(=O)O)c(N)c3c2C(=O)c2ccccc2C3=O)cc1 :: 99
39. CC(C)(C)CC(C)(C)c1ccc(OCCO)cc1 :: 99
40. CCOc1ccc(N/N=C(\CCC(=O)O)C(=O)O)cc1 :: 77
41. c1ccc2c(c1)[nH]c1c(N3CCOCC3)nnc(N3CCOCC3)c12 :: 3
42. CCCCCCC(C)CC(CCCCCC)NCCOC(=O)c1ccc([N+](=O)[O-])cc1 (stereo not given) :: 99
43. CC1=CC(C)=Nc2ccc(Cl)cc2N1 :: 2
44. CCCCCCCCCCCCOS(=O)(=O)O :: 2
45. COc1ccc2c(c1)C(Cc1ccc(Oc3ccc(CC4c5cc(OC)ccc5CC[N+]4(C)C)cc3)cc1)[N+](C)(C)CC2 (stereo not given) :: 51
